# Lookup of reported inhibition keyed by entry
# method: UWB1.289_BRCA1 ovarian cancer growth, cell-based, BGB or cisplatin combinations (AID 1671459)
# test-settings: UWB1.289 BRCA1 ovarian carcinoma, drug combinations, BGB combination, concentration series, at 5 µM, stronger effect = higher value

smiles-input	unit-symbol	inhibition
O=C(COc1cccc2c(=O)[nH]ccc12)c1ccccc1	%	17.1
CN[C@@H]1CN(c2ccc3c(=O)c(C(=O)O)cn(-c4nccs4)c3n2)C[C@H]1OC	%	94.6
O=C(O)CO.[NH2-].[NH2-].[Pt+2]	%	-0.864
CO[C@H]1/C=C/O[C@@]2(C)Oc3c(C)c(O)c4c(O)c(c(/C=N\N5CCN(C6CCCC6)CC5)c(O)c4c3C2=O)NC(=O)/C(C)=C\C=C\[C@H](C)[C@H](O)[C@@H](C)[C@@H](O)[C@@H](C)[C@H](OC(C)=O)[C@@H]1C	%	4.16
CN(C)C/C=C/C(=O)Nc1ccc(C(=O)Nc2cccc(Nc3ncc(Cl)c(-c4c[nH]c5ccccc45)n3)c2)cc1	%	79.9
CCCCc1nc2cc(/C=C/C(=O)NO)ccc2n1CCN(CC)CC	%	115
Nc1ncnc2c1c(-c1cnc3[nH]ccc3c1)nn2C1CCCC1	%	98.9
NCCOc1cc(C(=O)Nc2cc(OCCN)c3ccccc3n2)nc(C(=O)Nc2cc(OCCN)c3ccccc3n2)c1	%	15.3
C[C@]12CCCN1CC1=NNC(=O)c3cc(F)cc4[nH]c2c1c34	%	-3.19

###

# Lookup of reported viability keyed by entry
# method: drug combination growth inhibition, ovarian cancer – cell-based, oncology-focused library, rucaparib conditional, profiling panel (AID 1508598)
# test-settings: patient-derived ovarian cancer cells, CellTiter-Glo viability, 144 h; at 0.000305 µM; OCI-P5x cells; without rucaparib; stronger effect = lower value
parameter: viability (%)

compound	measured-number
Cn1cc(-c2ccc3nnc(C(F)(F)c4ccc5ncccc5c4)n3n2)cn1	89.6
COc1ccc(COc2cc3oc(=O)c4cc(C(C)O)ccc4c3cc2OC)cc1 (centres undefined)	97.5
Cc1nc(N)sc1-c1ccnc(Nc2ccc(N3CCOCC3)cc2)n1	120
CC(=O)Nc1nc(C)c(-c2ccc(Cl)c(S(=O)(=O)NCCO)c2)s1	117
Cc1cccc(Nc2nc(-c3ccncc3)cs2)c1	86.6
COc1cc2c(Oc3ccc4[nH]c(C)cc4c3F)ncnc2cc1OCCCN1CCCC1	88.7
C=C(c1ccc(C(=O)O)cc1)c1cc2c(cc1C)C(C)(C)CCC2(C)C	106
Nc1nc(Nc2ccc(S(N)(=O)=O)cc2)nn1C(=O)c1c(F)cccc1F	84.9
CO[C@@H](C(=O)N1Cc2[nH]nc(NC(=O)c3ccc(N4CCN(C)CC4)cc3)c2C1)c1ccccc1	84.6
CC(C)c1ccccc1Cc1cc(C(=O)Nc2ccc(S(=O)(=O)c3ccccc3C(C)(C)C)cc2)c(O)c(O)c1O	124
COc1nc(C)cnc1NS(=O)(=O)c1cccnc1-c1ccc(-c2nnco2)cc1	109
Cc1cnc(-c2cnc(NCCNc3ccc(C#N)cn3)nc2-c2ccc(Cl)cc2Cl)[nH]1	106
Cn1cc(CNCC2CCN(c3ncc(C(=O)NO)cn3)CC2)c2ccccc21	92.2
CNC(=O)c1ccc(C)c(-n2c(C)cc(OCc3ccc(F)cc3F)c(Br)c2=O)c1	115
Cc1csc(-c2nnc(Nc3ccc(Oc4ncccc4-c4ccnc(N)n4)cc3)c3ccccc23)c1	94.9
CNC(=O)c1ccc(N2C(=S)N(c3ccc(C#N)c(C(F)(F)F)c3)C(=O)C2(C)C)cc1F	76.7
Cc1cc(Nc2cc(N3CCN(C)CC3)nc(/C=C/c3ccccc3)n2)n[nH]1	97.8
Cc1ccc(F)c(NC(=O)Nc2ccc(-c3cccc4[nH]nc(N)c34)cc2)c1	19.5
Cc1ccc([C@@H]2O[C@H](CO)[C@@H](O)[C@H](O)[C@H]2O)cc1Cc1ccc(-c2ccc(F)cc2)s1	97.6
CC1(O)CC(c2nc(-c3ccc4ccc(-c5ccccc5)nc4c3)c3c(N)nccn23)C1 (centres undefined)	106
CC[C@@H]1C(=O)N(C)c2cnc(Nc3ccc(C(=O)NC4CCC(N5CCN(CC6CC6)CC5)CC4)cc3OC)nc2N1C(C)C (some centres undefined)	102
C[C@@H]1CN(CC(=O)Nc2ccc3c(c2)Cc2cccc(-c4cc(=O)cc(N5CCOCC5)o4)c2S3)C[C@H](C)O1	119
C#Cc1cccc(Nc2ncnc3cc(OCCOC)c(OCCO)cc23)c1	119
O=C(NOC[C@H](O)CO)c1ccc(F)c(F)c1Nc1ccc(I)cc1F	86.4
C[C@H](NC(=O)Cc1cc(F)cc(F)c1)C(=O)N[C@@H]1C(=O)N(C)c2ccccc2-c2ccccc21	97.1
Cc1ccc(-c2csc(NC(=O)c3ccccc3)n2)c(C)c1	106
CC(C)CC(=O)Nc1n[nH]c2c1CN(C(=O)C1CCN(C)CC1)C2(C)C	115
CCC(CC)CC1(C(=O)Nc2ccccc2SC(=O)C(C)C)CCCCC1	91.2
O=C(/C=C/c1cccc(S(=O)(=O)Nc2ccccc2)c1)NO	94
Cn1cncc1[C@@](N)(c1ccc(Cl)cc1)c1ccc2c(c1)c(-c1cccc(Cl)c1)cc(=O)n2C	113
COc1ccc(-n2c(SCCCN3C(=O)c4cccc5cccc(c45)C3=O)nnc2-c2ccncc2)cc1	100
COc1ccc(-c2ccc3c(N4CCOC[C@@H]4C)nc(N4CCOC[C@@H]4C)nc3n2)cc1CO	93
N#CCNC(=O)c1ccc(-c2ccnc(Nc3ccc(N4CCOCC4)cc3)n2)cc1	104
CC(C)OC(=O)C1=CN(C(=O)c2ccc(F)c(F)c2)CC(C)(C)c2c1[nH]c1ccccc21	112
CS(=O)(=O)N1CCc2c(-c3cnc(N)nc3)nc(N3CCOCC3)nc21	109
O=C(Cc1ccc(-c2ccc(OCCN3CCOCC3)cc2)cn1)NCc1ccccc1	106
Cc1cccc(-c2nn3c(c2-c2ccnc4ccc(C(N)=O)cc24)CCC3)n1	110
c1ccc2c(CCNc3ccc(Nc4ccncc4)cc3)c[nH]c2c1	116
C=CC(=O)Nc1cc(Nc2nccc(-c3cn(C)c4ccccc34)n2)c(OC)cc1N(C)CCN(C)C	94.3
